# assayed_system: hCA XII (Homo sapiens, UniProt O43570)
# Sequence (O43570 25-354): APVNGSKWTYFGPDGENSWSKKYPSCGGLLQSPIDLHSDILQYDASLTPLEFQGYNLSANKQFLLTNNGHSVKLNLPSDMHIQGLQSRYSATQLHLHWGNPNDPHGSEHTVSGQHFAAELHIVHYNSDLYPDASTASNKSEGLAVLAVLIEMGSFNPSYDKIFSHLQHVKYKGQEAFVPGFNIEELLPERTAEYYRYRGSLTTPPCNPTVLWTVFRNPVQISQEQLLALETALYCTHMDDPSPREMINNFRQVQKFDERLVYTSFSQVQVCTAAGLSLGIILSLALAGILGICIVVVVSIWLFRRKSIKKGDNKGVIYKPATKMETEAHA
# test_summary: Carbonic anhydrase inhibition, colorimetric method (BioVision CA Inhibitor Screening Kit)
# measurement_conditions: hCA XII over hCA II
measured_parameter: Selectivity index II/XII
Give a plain numeric answer without units written out.

# annotated cases, reported Selectivity index II/XII shown
# compound, Selectivity index II/XII
data = [
    ("Nc1c(/N=C/c2cc3ccccc3[nH]c2=O)c(=O)[nH]c(=O)n1Cc1ccccc1 [Compound 10b]", 3.24),
    ("CCn1c(N)c(/N=C/c2cc3cc(OC)ccc3[nH]c2=O)c(=O)[nH]c1=O [Compound 10j]", 4.18),
    ("Cc1cccc2cc(/C=N/c3c(N)n(C)c(=S)[nH]c3=O)c(=O)[nH]c12 [Compound 10g]", 10.05),
]

Would you kindly look at the next entry?
So what's the measured Selectivity index II/XII for this one? COc1ccc2[nH]c(=O)c(/C=N/c3c(N)n(C)c(=O)[nH]c3=O)cc2c1 [Compound 10k]
12.26
